Origin of the recorded values: the supplement of paper PMC7877785

method-summary: self-splicing fitness, log relative to wild type (ln ratio); higher = more splicing; Tetrahymena group I intron in knt gene, E. coli kanamycin selection, DiMSum; sequences stand for … in CUCUCU…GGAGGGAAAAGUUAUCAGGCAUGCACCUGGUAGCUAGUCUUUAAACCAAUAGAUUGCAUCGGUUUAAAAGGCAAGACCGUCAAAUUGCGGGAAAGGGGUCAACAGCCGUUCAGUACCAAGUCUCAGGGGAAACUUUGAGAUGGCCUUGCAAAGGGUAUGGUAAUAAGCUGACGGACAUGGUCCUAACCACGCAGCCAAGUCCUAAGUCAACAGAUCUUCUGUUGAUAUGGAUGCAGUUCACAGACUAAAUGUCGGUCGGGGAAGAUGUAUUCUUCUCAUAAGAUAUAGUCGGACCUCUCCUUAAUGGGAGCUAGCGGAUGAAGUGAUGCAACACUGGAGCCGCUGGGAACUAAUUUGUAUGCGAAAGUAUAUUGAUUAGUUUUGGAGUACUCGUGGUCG;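 further: selection with 25 µg/mL kanamycin versus none on LB agar overnight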
experimental-setup: 30 °C
Label criterion met when self-splicing fitness (ln) >= -3; otherwise criterion not met.

# count of solved cases: 5
Exercise: I'd appreciate it if you could say whether AAACAGCAAUAUUACGAGAG has self-splicing fitness (ln) at least equal to -3.
Key: criterion met

Exercise: Also UUAGAGCAAUAUUACGGACA , if possible.
Key: criterion met

Exercise: Also UGUCAGCAAUAUUACGAGAG , if possible.
Key: criterion not met

Exercise: Also CUGUAGCAAUAUUACGGAAA , if possible.
Key: criterion met

Exercise: Also UCGCAGCAAUAUUACGUUGA , if possible.
Key: criterion not met

Next:
Exercise: I'd appreciate it if you could say whether GCCGAGCAAUAUUACGGCAU has self-splicing fitness (ln) at least equal to -3.
Key: criterion not met

Exercise: Also UGCAAGCAAUAUUACGCCAG , if possible.
Key: criterion met

Exercise: Also UGGUAGCAAUAUUACGUUCG , if possible.
Key: criterion met

* * *

method-summary: self-splicing fitness, log relative to wild type (ln ratio); higher = more splicing; Tetrahymena group I intron in knt gene, E. coli kanamycin selection, DiMSum; sequences stand for … in CUCUCU…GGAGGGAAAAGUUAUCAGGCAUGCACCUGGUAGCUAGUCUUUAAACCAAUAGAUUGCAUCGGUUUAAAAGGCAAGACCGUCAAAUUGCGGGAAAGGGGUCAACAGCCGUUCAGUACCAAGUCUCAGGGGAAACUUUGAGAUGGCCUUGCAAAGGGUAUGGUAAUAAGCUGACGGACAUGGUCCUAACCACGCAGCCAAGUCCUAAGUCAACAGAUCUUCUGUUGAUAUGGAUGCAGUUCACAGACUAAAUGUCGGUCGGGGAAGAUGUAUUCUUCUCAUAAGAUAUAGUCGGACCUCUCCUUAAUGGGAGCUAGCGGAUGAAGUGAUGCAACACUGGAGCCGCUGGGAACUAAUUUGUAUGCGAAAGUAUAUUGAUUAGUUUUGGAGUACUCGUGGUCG
experimental-setup: 37 °C
Label y when self-splicing fitness (ln) >= -1; otherwise n.

# count of solved cases: 2
Exercise: I'd appreciate it if you could say whether CUAAAGCAAUAUUACGAUAA has self-splicing fitness (ln) at least equal to -1.
Key: y

Exercise: Also GAAGAGCAAUAUUACGUAGA , if possible.
Key: n

Next:
Exercise: I'd appreciate it if you could say whether ACAUAGCAAUAUUACGGCCC has self-splicing fitness (ln) at least equal to -1.
Key: y

Exercise: Also UAGCAGCAAUAUUACGUCUA , if possible.
Key: y

Exercise: Also ACUAAGCAAUAUUACGGAAC , if possible.
Key: n

Exercise: Also CUCAAGCAAUAUUACGUUGC , if possible.
Key: n

Exercise: Also UGCGAGCAAUAUUACGGCGA , if possible.
Key: y

Exercise: Also ACCGAGCAAUAUUACGUAAG , if possible.
Key: n

Exercise: Also GGCGAGCAAUAUUACGGUGA , if possible.
Key: n

Exercise: Also GAACAGCAAUAUUACGAAAA , if possible.
Key: n
